src = PubChem BioAssay (NCI)

- method_notes: NCI Yeast Anticancer Drug Screen. Data for the cln2 rad14 strain (AID 165)
- cond: S. cerevisiae cln2 rad14 strain, at 50.0 µM
This is part of a sample that, as a whole, favours compounds with a hit. Of some 79,000 tested, about 15% had one in any assay. The source made the active and inactive calls. No stated cut-off is given here; in the data, active means growth inhibition above about 70%; inactive means the rest.
Outcome field: choose from active, inactive

Identify the outcome logged in this assay for the compound shown: CCCCCCCCCCCCCC(=O)OCCCC
inactive

Same thing, different compound: CCc1cc(C(C)(C)C)cc(C(C)(C)C)c1O
inactive

Same thing, different compound: Cn1cnc2nc(N)[nH]c(=O)c21
inactive

Same thing, different compound: O=C1NC(=O)N2CC(CI)OC2C1c1ccccc1 (centres undefined)
inactive

Same thing, different compound: Brc1cc2c(cc1C=NC1CCCCC1)OCO2
inactive

Same thing, different compound: COC(=O)c1cc(NC(=O)Nc2ccc(Cl)cc2[N+](=O)[O-])cc(C(=O)OC)c1
inactive

Same thing, different compound: NC(Cc1ccc(B(O)O)cc1)C(=O)O (centres undefined)
inactive

Same thing, different compound: Cc1ncc(CO)c(Nc2ccccc2)n1
inactive

Same thing, different compound: C=C(Cl)/C(=C\Cl)CCC(Cl)C(C)C (centres undefined) (tested in a mixture with another compound)
active

Same thing, different compound: COc1cc2nc3n(c(=O)c2cc1OC)CCCCC3
inactive

Same thing, different compound: CCN(CC)CCn1c2ccccc2c(=O)c2c(O)ccc(O)c21
inactive

Same thing, different compound: O=C1CCCCC1COCC1CCCCC1=O (centres undefined)
inactive

Same thing, different compound: O=C1CCCC2=C(N1)C(=O)C=CC2=O
inactive

Same thing, different compound: Cc1ccc(/C(O)=C/C(=O)C(=O)NC23CC4CC(CC(C4)C2)C3)cc1
inactive

Same thing, different compound: CCCCn1cccc1
inactive

Same thing, different compound: O=C(OCc1ccc([N+](=O)[O-])cc1)N1c2ccccc2[C@@]23O[C@]24CCC[C@H]3C#C/C=C\C#C[C@H]14
inactive

Same thing, different compound: CC/C(=C(\CC)c1ccc(OC2C=CCCC2)cc1)c1ccc(OC2C=CCCC2)cc1 (centres undefined)
inactive

Same thing, different compound: O=C(N=Nc1c(O)[nH]c2ccc(Br)cc12)c1ccco1
inactive

Same thing, different compound: Cc1nn(C(=S)S)c(C)c1N=Nc1ccc(O)cc1
inactive

Same thing, different compound: COC1=C(OCc2ccccc2)C(=O)OC1C(O)CO (centres undefined)
inactive

Same thing, different compound: CCCCCCCCCCCCCCCCCC(=O)NC(=O)Nc1ccc(C)cc1
inactive

Same thing, different compound: CC(=O)Nc1ccc(C(N)=S)cc1
inactive

Same thing, different compound: C/C(=N/Nc1ccc([N+](=O)[O-])cc1[N+](=O)[O-])c1ccc(Sc2ccc(/C(C)=N/Nc3ccc([N+](=O)[O-])cc3[N+](=O)[O-])cc2)cc1
inactive

Same thing, different compound: CC(=O)ON1CCC=NC1
inactive
